Reported MIC, Bacillus subtilis ATCC 6633.

>>> result("CC[C@H](C)[C@H](N)C(=O)N[C@@H](CC(C)C)C(=O)NCC(=O)N1CCC[C@H]1C(=O)N[C@H](C(=O)N[C@H](C(=O)N[C@@H](CO)C(=O)N[C@H](C(=O)N[C@H](C(=O)NCC(=O)N[C@@H](CC(N)=O)C(=O)N[C@@H](C)C(=O)N[C@@H](CC(C)C)C(=O)NCC(=O)NCC(=O)N[C@@H](CC(C)C)C(=O)N[C@@H](CC(C)C)C(=O)N[C@@H](CCCCN)C(=O)N[C@@H](CC(N)=O)C(=O)N[C@@H](CC(C)C)C(N)=O)[C@@H](C)CC)[C@@H](C)O)[C@@H](C)CC)C(C)C")
"≥ 50.9 µM"

Attention now turns to another entry.
What value of MIC has been recorded for this entry: CC[C@H](C)[C@H](N)C(=O)N[C@@H](CC(C)C)C(=O)NCC(=O)N1CCC[C@H]1C(=O)N[C@H](C(=O)N[C@@H](CC(C)C)C(=O)NCC(=O)N[C@@H](CC(C)C)C(=O)N[C@H](C(=O)N[C@@H](CO)C(=O)N[C@@H](CC(N)=O)C(=O)N[C@@H](C)C(=O)N[C@@H](CC(C)C)C(=O)NCC(=O)NCC(=O)N[C@@H](CC(C)C)C(=O)N[C@@H](CC(C)C)C(N)=O)C(C)C)C(C)C
≥ 62.3 µM
